Molecular target: 5-hydroxytryptamine receptor 5A (Rattus norvegicus)
Sequence (P35364 whole entry): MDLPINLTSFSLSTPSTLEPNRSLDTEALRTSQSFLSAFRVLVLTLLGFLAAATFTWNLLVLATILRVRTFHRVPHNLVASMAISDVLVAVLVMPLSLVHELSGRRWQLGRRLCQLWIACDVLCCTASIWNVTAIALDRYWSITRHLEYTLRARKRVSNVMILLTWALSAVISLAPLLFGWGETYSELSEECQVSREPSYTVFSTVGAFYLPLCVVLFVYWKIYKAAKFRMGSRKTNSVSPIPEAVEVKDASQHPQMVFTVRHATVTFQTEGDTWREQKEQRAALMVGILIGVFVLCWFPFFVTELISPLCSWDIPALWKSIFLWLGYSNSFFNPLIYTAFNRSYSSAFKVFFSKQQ
Consider the following compounds; for each one, report its pKi.
Hey, just a heads up that pKi is the negative log base 10 of the concentration in molar.

Lab note: COc1cc(N)c(Cl)cc1C(=O)NC1CN2CCC1CC2 (stereo unspecified) [ZACOPRIDE,R] gave pKi of 6.00

Lab note: CN1C[C@@H](NS(=O)(=O)N(C)C)C[C@@H]2c3cccc4c3c(cn4C)C[C@H]21 gave pKi of 6.00

Lab note: CN1C[C@H](CNC(=O)OCc2ccccc2)C[C@@H]2c3cccc4c3c(cn4C)C[C@H]21 gave pKi of 6.00

Lab note: COc1ccc2[nH]cc(CCNC(C)=O)c2c1 gave pKi of 6.00

Lab note: COc1cc(CC(C)N)c(OC)cc1I (stereo unspecified) [[125I]2,5-dimethoxy-4-iodoamphetamine] gave pKi of 6.00

Lab note: CCCN(CCC)C1CCc2cccc(O)c2C1 (stereo unspecified) gave pKi of 6.00

Lab note: NCCc1ccc(O)c(O)c1 gave pKi of 6.00

Lab note: CC[C@@H](CO)NC(=O)[C@@H]1C=C2c3cccc4c3c(cn4C)C[C@H]2N(C)C1 gave pKi of 6.00

Lab note: CSc1ccc2c(c1)C(N1CCN(C)CC1)Cc1ccccc1S2 (stereo unspecified) gave pKi of 6.84

Lab note: NCC(O)c1ccc(O)c(O)c1 (stereo not drawn) [Noradrenaline,(+)] gave pKi of 6.00

Lab note: NCCc1c[nH]c2ccc(O)cc12 [[3H]-5-HT] gave pKi of 5.88

====

Consider the following compounds; for each one, report its Ki.
Give just the number in nM; leave the unit off.

Log: UniProt:P35365, compound CN1C[C@@H](NS(=O)(=O)N(C)C)C[C@@H]2c3cccc4c3c(cn4C)C[C@H]21 , Ki = 1000

Log: UniProt:P35365, compound NCCc1c[nH]c2ccc(C(N)=O)cc12 [[3H]-5-carboxamidotryptamine] , Ki = 12.6

Log: UniProt:P35365, compound NCC(O)c1ccc(O)c(O)c1 (stereo not drawn) [Noradrenaline,(+)] , Ki = 1000

Log: UniProt:P35365, compound NCCc1ccc(O)c(O)c1 , Ki = 1000

Log: UniProt:P35365, compound COc1cc(N)c(Cl)cc1C(=O)NC1CN2CCC1CC2 (stereo not given) [ZACOPRIDE,R] , Ki = 1000

Log: UniProt:P35365, compound CC[C@@H](CO)NC(=O)[C@@H]1C=C2c3cccc4c3c(cn4C)C[C@H]2N(C)C1 , Ki = 196

Log: UniProt:P35365, compound CCCN(CCC)C1CCc2cccc(O)c2C1 (stereo not given) , Ki = 1000

Log: UniProt:P35365, compound CN1C[C@H](CNC(=O)OCc2ccccc2)C[C@@H]2c3cccc4c3c(cn4C)C[C@H]21 , Ki = 1000

Log: UniProt:P35365, compound COc1cc(CC(C)N)c(OC)cc1I (stereo not given) [[125I]2,5-dimethoxy-4-iodoamphetamine] , Ki = 1000

Log: UniProt:P35365, compound COc1ccc2[nH]cc(CCNC(C)=O)c2c1 , Ki = 1000
